Reported Ki for target or system UniProt:P00734, by entry.
Record the value in nM, omitting the unit from your answer.

# count of solved cases: 3
1. NCCCC[C@H](NC(=O)CN(C(=O)[C@@H](CC1CCCCC1)NCC(=O)O)C1CCCC1)C(=O)C(=O)O : 0.21
2. CCS(=O)(=O)N[C@H](CC1CCCCC1)C(=O)N1CCC[C@H]1C(=O)N[C@@H](CCCCN)C(=O)c1nccs1 : 2
3. NC(N)=NCCC[C@H](NC(=O)[C@@H]1CCCN1C(=O)[C@@H](N)Cc1ccccc1)C(=O)c1nccs1 : 0.3

Notebook entry, UniProt:P00734 assay: Ki of "NCCCC[C@H](NC(=O)[C@@H]1CCCN1C(=O)[C@H](N)CC1CCCCC1)C(=O)c1nccs1" = ?
3.5

====

# ASSAY NOTES: Bioavailability in rat
# Type: ADME, organism-based
# EXPERIMENTAL CONTEXT: in vivo
Measured bioavailability values are reported for all entries that follow.
Record the value in %, omitting the unit from your answer.

# count of solved cases: 3
1. NCCCC[C@H](NC(=O)CN(C(=O)[C@@H](CC1CCCCC1)NCC(=O)O)C1CCCC1)C(=O)C(=O)O : 2
2. CC(C)OC(=O)C(=O)[C@H](CCCCN)NC(=O)[C@@H]1CCCN1C(=O)[C@@H](CC1CCCCC1)NCC(=O)O : 32
3. NCCCC[C@H](NC(=O)[C@@H]1CC2CCCCC2N1C(=O)[C@@H](CC1CCCCC1)NCC(=O)O)C(=O)C(=O)O (some centres undefined) : 25

Proceed to the following item.
Need bioavailability, item "NCCCC[C@H](NC(=O)[C@@H]1CCCN1C(=O)[C@@H](CC1CCCCC1)NCC(=O)O)C(=O)C(=O)NCCc1ccccc1"
23

====

Reported Ki for target or system UniProtKB P00734, by entry.
Record the value in nM, omitting the unit from your answer.

1. NCCCC[C@H](NC(=O)[C@@H]1CCN1C(=O)[C@@H](CC1CCCCC1)NCC(=O)O)C(=O)C(=O)O : 0.5

Notebook entry, UniProtKB P00734 assay: Ki of "NCCCC[C@H](NC(=O)CN(C(=O)[C@H](N)CC1CCCCC1)C1CC1)C(=O)c1nccs1" = ?
13

Notebook entry, UniProtKB P00734 assay: Ki of "NCCCC[C@H](NC(=O)[C@@H]1CCCN1C(=O)[C@@H](CC1CCCCC1)NCC(=O)O)C(=O)C(=O)O" = ?
0.29

Notebook entry, UniProtKB P00734 assay: Ki of "NCCCC[C@H](NC(=O)[C@@H]1CCCN1C(=O)[C@@H](CC1CCCCC1)NCC(=O)O)C(=O)C(=O)NCCc1ccccc1" = ?
0.84

Notebook entry, UniProtKB P00734 assay: Ki of "NCCCC[C@H](NC(=O)[C@@H]1CCCCN1C(=O)[C@@H](CC1CCCCC1)NCC(=O)O)C(=O)C(=O)O" = ?
0.29

Notebook entry, UniProtKB P00734 assay: Ki of NC(N)=NCCC[C@@H]1NC(=O)[C@@H]2CCCN2C(=O)[C@@H](NC=O)CNC(=O)/C=C/[C@H](Cc2ccc(O)cc2)NC(=O)[C@@H](Cc2ccccc2)NC(=O)C1=O [CYCLOTHEONAMIDE A] = ?
1

Notebook entry, UniProtKB P00734 assay: Ki of NCCCC[C@H](NC(=O)[C@@H]1CC2CCCCC2N1C(=O)[C@@H](CC1CCCCC1)NCC(=O)O)C(=O)C(=O)O (stereo not given in full) = ?
0.82

Notebook entry, UniProtKB P00734 assay: Ki of "CC1(C)CCN(C(=O)[C@@H](CC2CCCCC2)NCC(=O)O)[C@@H]1C(=O)N[C@@H](CCCCN)C(=O)C(=O)O" = ?
376

Notebook entry, UniProtKB P00734 assay: Ki of "CC(C)OC(=O)C(=O)[C@H](CCCCN)NC(=O)[C@@H]1CCCN1C(=O)[C@@H](CC1CCCCC1)NCC(=O)O" = ?
1.1

Notebook entry, UniProtKB P00734 assay: Ki of "NCCCC[C@H](NC(=O)[C@@H]1CCCN1C(=O)[C@H](N)Cc1ccccc1)C(=O)C(=O)O" = ?
1.4

Notebook entry, UniProtKB P00734 assay: Ki of "NCCCC[C@H](NC(=O)[C@@H]1CCCN1C(=O)[C@H](N)CC1CCCCC1)C(=O)C(=O)O" = ?
0.14

Notebook entry, UniProtKB P00734 assay: Ki of "NCCCC[C@H](NC(=O)[C@@H]1CCCN1C(=O)[C@@H](CC1CCCCC1)NCC(=O)O)C(=O)c1ncco1" = ?
0.42

Notebook entry, UniProtKB P00734 assay: Ki of "NCCCC[C@H](NC(=O)[C@@H]1CCCN1C(=O)[C@@H](CC1CCCCC1)NCC(=O)O)C(=O)c1nccs1" = ?
2.6

====

# ASSAY NOTES: Half life value determined in dog
# Type: ADME, Canis lupus familiaris
# EXPERIMENTAL CONTEXT: in vivo
Measured half-life values are reported for all entries that follow.
Record the value in h, omitting the unit from your answer.

1) NCCCC[C@H](NC(=O)[C@@H]1CCN1C(=O)[C@@H](CC1CCCCC1)NCC(=O)O)C(=O)C(=O)O : 0.7

Proceed to the following item.
Need half-life, item "NCCCC[C@H](NC(=O)[C@@H]1CCCN1C(=O)[C@@H](CC1CCCCC1)NCC(=O)O)C(=O)C(=O)O"
1.3

====

# ASSAY NOTES: Half life value in rat was determined
# Assay type: ADME, organism-based
# EXPERIMENTAL CONTEXT: in vivo
Measured half-life values are reported for all entries that follow.
Record the value in min, omitting the unit from your answer.

Need half-life, item "NCCCC[C@H](NC(=O)[C@@H]1CCCN1C(=O)[C@@H](CC1CCCCC1)NCC(=O)O)C(=O)C(=O)NCCc1ccccc1"
17

Need half-life, item "NCCCC[C@H](NC(=O)CN(C(=O)[C@@H](CC1CCCCC1)NCC(=O)O)C1CCCC1)C(=O)C(=O)O"
18

Need half-life, item "CC(C)OC(=O)C(=O)[C@H](CCCCN)NC(=O)[C@@H]1CCCN1C(=O)[C@@H](CC1CCCCC1)NCC(=O)O"
58

Need half-life, item NCCCC[C@H](NC(=O)[C@@H]1CC2CCCCC2N1C(=O)[C@@H](CC1CCCCC1)NCC(=O)O)C(=O)C(=O)O (some centres undefined)
8

====

# ASSAY NOTES: Clearance was reported
# Type: ADME, organism-based
# EXPERIMENTAL CONTEXT: in vivo
ASSAY METRIC: clearance
Give the figure together with its unit, number first.

Need clearance, item "NCCCC[C@H](NC(=O)[C@@H]1CCCN1C(=O)[C@@H](CC1CCCCC1)NCC(=O)O)C(=O)C(=O)O"
0.417 mL/min

====

# ASSAY NOTES: Half life was reported
# Format: ADME
Measured half-life values are reported for all entries that follow.

1. NCCCC[C@H](NC(=O)[C@@H]1CCCN1C(=O)[C@H](N)CC1CCCCC1)C(=O)C(=O)O : 9 min
2. NCCCC[C@H](NC(=O)[C@@H]1CCCN1C(=O)[C@@H](CC1CCCCC1)NCC(=O)O)C(=O)c1nccs1 : 23 min
3. NC(N)=NCCC[C@H](NC(=O)[C@@H]1CCCN1C(=O)[C@@H](N)Cc1ccccc1)C(=O)c1nccs1 : 5 min

Proceed to the following item.
Need half-life, item "NCCCC[C@H](NC(=O)[C@@H]1CCCN1C(=O)[C@@H](CC1CCCCC1)NCC(=O)O)C(=O)c1ncco1"
< 5 min

Source: ChEMBL document CHEMBL1135821
